- Assay protocol: Acute toxicity, intravenous administration in mice
- Format: in vivo
- Measurement setup: mouse, in vivo, ICR mice, adult female
Parameter measured: LD50

[[record]]
molecule = "CNCC1CCC(N)C(OC2C(N)CC(O)C(N(C)C(=O)CN)C2O)O1 (stereo not shown)"
value_observed = "160 to 320 mg/kg"

